STUDY_TARGET: UniProtKB P07948
Sequence (P07948 whole entry): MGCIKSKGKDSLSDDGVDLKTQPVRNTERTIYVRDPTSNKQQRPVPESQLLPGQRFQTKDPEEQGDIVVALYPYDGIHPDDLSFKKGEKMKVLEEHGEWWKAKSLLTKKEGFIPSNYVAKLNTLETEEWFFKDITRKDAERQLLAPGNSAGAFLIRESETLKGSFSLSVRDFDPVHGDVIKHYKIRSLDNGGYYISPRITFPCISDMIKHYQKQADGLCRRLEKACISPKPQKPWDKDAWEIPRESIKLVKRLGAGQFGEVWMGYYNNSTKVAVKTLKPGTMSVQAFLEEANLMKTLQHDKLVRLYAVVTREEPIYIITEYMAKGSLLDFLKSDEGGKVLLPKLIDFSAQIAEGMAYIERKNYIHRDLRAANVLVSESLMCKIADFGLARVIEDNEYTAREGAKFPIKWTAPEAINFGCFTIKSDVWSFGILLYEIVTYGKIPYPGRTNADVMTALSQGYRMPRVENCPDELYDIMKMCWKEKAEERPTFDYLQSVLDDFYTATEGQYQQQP
pIC50: −log10 of the molar value.
OBSERVATION_TYPE: pIC50

INSERT INTO assay_data (cpd_smiles, obs_value) VALUES
  ('CCS(=O)(=O)Cc1cnc(Oc2c(F)cc(F)cc2OCCCCOc2ccc(/C=C/c3cc(OC)cc(OC)c3)cc2)c(-c2cc(C)c3c(=O)[nH]ccn23)c1', '< 5.00');

* * *

STUDY_TARGET: NTRK2 (Homo sapiens)
Sequence (Q16620 32-822): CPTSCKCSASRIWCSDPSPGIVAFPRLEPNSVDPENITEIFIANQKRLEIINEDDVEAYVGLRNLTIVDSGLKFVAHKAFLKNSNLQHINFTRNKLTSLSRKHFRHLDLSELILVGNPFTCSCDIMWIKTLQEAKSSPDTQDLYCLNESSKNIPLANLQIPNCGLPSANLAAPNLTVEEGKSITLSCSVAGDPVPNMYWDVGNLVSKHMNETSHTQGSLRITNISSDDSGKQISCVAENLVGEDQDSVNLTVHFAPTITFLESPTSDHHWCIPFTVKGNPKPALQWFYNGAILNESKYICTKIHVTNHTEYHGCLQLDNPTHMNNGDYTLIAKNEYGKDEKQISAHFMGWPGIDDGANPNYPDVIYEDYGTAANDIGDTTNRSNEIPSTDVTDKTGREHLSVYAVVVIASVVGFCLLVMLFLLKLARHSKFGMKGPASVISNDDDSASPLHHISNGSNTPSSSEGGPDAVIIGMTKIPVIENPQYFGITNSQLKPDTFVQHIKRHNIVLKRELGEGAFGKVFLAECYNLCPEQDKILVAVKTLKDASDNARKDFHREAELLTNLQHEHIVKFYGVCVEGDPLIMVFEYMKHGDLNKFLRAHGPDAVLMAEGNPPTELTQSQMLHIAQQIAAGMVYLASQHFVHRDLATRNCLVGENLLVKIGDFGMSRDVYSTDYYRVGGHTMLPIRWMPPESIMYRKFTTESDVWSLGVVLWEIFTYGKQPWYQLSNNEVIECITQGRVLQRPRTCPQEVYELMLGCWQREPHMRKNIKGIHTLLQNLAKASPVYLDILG
pIC50: −log10 of the molar value.
OBSERVATION_TYPE: pIC50

INSERT INTO assay_data (compound, obs_value) VALUES
  ('CCS(=O)(=O)Cc1cnc(Oc2c(F)cc(F)cc2OCCCCOc2ccc(/C=C/c3cc(OC)cc(OC)c3)cc2)c(-c2cc(C)c3c(=O)[nH]ccn23)c1 [BST-4]', '< 5.00');

* * *

STUDY_TARGET: UniProt Q15059
Sequence (Q15059 whole entry): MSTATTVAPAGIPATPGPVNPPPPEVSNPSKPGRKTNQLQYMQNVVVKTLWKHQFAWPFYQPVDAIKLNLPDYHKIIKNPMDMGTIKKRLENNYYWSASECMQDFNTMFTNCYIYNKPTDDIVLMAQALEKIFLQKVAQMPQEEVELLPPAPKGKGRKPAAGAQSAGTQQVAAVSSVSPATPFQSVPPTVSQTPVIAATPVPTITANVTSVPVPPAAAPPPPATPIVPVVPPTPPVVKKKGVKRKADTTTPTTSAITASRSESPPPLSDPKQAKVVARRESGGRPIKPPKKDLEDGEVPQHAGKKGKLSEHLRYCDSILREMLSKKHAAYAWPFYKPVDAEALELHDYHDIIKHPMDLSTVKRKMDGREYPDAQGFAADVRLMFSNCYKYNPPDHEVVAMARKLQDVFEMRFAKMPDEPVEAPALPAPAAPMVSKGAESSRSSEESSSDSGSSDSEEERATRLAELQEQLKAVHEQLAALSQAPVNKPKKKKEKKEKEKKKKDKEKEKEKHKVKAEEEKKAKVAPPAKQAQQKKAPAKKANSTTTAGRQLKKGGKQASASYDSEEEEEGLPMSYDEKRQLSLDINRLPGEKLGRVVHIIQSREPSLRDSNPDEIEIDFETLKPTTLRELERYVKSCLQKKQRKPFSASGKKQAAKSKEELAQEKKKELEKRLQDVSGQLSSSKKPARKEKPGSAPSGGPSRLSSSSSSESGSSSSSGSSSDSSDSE
OBSERVATION_TYPE: IC50

INSERT INTO measurements (cpd_smiles, observation_type, obs_value) VALUES
  ('CCS(=O)(=O)Cc1cnc(Oc2c(F)cc(F)cc2OCCCCOc2ccc(/C=C/c3cc(OC)cc(OC)c3)cc2)c(-c2cc(C)c3c(=O)[nH]ccn23)c1', 'IC50', '> 10 µM');

* * *

STUDY_TARGET: TXK (Homo sapiens, UniProt P42681)
Sequence (P42681 1-527): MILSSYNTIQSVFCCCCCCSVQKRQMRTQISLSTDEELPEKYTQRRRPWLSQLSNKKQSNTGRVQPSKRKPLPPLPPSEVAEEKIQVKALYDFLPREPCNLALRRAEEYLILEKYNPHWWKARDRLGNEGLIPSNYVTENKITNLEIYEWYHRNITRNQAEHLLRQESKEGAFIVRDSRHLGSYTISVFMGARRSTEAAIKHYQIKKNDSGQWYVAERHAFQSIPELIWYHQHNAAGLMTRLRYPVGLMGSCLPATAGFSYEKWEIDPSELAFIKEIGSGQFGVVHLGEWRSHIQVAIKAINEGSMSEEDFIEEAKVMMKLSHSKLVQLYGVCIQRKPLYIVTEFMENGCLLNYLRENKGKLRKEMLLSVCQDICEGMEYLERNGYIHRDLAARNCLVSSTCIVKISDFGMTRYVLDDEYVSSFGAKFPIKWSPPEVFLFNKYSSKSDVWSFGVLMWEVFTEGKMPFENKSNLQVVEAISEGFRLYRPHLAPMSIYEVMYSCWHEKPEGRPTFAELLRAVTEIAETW
PROCEDURE_DETAILS: SelectScreen Z′-LYTE kinase assay
Type: biochemical
OBSERVATION_TYPE: IC50

INSERT INTO results (compound, observation_type, obs_value) VALUES
  ('CCS(=O)(=O)Cc1cnc(Oc2c(F)cc(F)cc2OCCCCOc2ccc(/C=C/c3cc(OC)cc(OC)c3)cc2)c(-c2cc(C)c3c(=O)[nH]ccn23)c1 [BST-4]', 'IC50', '> 10 µM');

* * *

STUDY_TARGET: EPHB4 (Homo sapiens)
Sequence (P54760 16-987): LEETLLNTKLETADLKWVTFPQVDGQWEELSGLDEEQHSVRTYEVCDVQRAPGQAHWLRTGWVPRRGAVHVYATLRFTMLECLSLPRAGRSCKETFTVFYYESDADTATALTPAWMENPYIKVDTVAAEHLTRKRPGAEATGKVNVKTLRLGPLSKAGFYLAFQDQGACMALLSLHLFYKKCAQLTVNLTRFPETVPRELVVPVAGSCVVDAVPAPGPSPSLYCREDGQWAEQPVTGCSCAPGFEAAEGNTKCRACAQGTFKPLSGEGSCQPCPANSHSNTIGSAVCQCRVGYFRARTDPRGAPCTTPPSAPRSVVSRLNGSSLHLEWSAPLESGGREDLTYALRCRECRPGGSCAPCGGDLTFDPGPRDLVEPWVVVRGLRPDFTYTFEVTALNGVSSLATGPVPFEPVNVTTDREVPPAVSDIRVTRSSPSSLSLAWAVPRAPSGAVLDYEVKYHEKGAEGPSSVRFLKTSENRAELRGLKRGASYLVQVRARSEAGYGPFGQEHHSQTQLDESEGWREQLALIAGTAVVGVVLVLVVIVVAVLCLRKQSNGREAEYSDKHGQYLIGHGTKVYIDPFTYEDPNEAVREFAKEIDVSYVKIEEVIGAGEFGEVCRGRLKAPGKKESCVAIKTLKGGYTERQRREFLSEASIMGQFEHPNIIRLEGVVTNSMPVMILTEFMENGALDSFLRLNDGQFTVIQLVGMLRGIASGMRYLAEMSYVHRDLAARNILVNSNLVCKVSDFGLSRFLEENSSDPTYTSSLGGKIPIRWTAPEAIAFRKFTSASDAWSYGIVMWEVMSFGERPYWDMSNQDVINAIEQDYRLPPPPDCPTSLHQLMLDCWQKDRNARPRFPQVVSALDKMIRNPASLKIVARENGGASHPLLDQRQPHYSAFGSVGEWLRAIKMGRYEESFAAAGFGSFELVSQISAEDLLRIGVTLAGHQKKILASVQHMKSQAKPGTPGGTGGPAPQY
pIC50: −log10 of the molar value.
OBSERVATION_TYPE: pIC50

INSERT INTO assay_data (cpd_smiles, study_target, obs_value) VALUES
  ('CCS(=O)(=O)Cc1cnc(Oc2c(F)cc(F)cc2OCCCCOc2ccc(/C=C/c3cc(OC)cc(OC)c3)cc2)c(-c2cc(C)c3c(=O)[nH]ccn23)c1', 'EPHB4 (Homo sapiens)', '< 5.00');
